# Test system: Bacillus subtilis
# ASSAY_OVERVIEW: Antibacterial activity against Bacillus subtilis MTCC 2763 assessed as growth inhibition after 18 hrs by CLSI microdilution broth assay
# Format: functional
# TEST_SETTINGS: MTCC 2763, 18 h
Where a SMILES comes first, the peptide text is derived from it. [ ]: non-standard residue; d: D form. 3Abz = Nc1cccc(C(=O)O)c1
Entries and their measured MIC follow.
Output spec: scalar in µg/mL, unitless text.

Q: Given the entry N=C(N)NCCCC(N)C(=O)NC(Cc1c[nH]c2ccccc12)C(=O)Nc1cccc(C(=O)NC(Cc2c[nH]c3ccccc23)C(=O)NC(CCCNC(=N)N)C(N)=O)c1 (stereo not given) (H-RW[3Abz]WR-NH2; configuration not given here) , what MIC was observed with Bacillus subtilis?
Result: 50

Q: Given the entry N=C(N)NCCCC(NC(=O)C(Cc1c[nH]c2ccccc12)NC(=O)c1cccc(NC(=O)C(CCCNC(=N)N)NC(=O)C(N)Cc2c[nH]c3ccccc23)c1)C(N)=O (stereo not given) (H-WR[3Abz]WR-NH2; configuration not given here) , what MIC was observed with Bacillus subtilis?
Result: 75

Q: Given the entry N=C(N)NCCCC(N)C(=O)NC(Cc1c[nH]c2ccccc12)C(=O)Nc1cccc(C(=O)NC(CCCNC(=N)N)C(N)=O)c1 (stereo not given) (H-RW[3Abz]R-NH2; configuration not given here) , what MIC was observed with Bacillus subtilis?
Result: 100

Q: Given the entry N=C(N)NCCCC(NC(=O)C(CCCNC(=N)N)NC(=O)c1cccc(NC(=O)C(CCCNC(=N)N)NC(=O)C(Cc2c[nH]c3ccccc23)NC(=O)C(N)Cc2c[nH]c3ccccc23)c1)C(N)=O (stereo not given) (H-WWR[3Abz]RR-NH2; configuration not given here) , what MIC was observed with Bacillus subtilis?
Result: 70

Q: Given the entry N=C(N)NCCCC(NC(=O)c1cccc(NC(=O)C(Cc2c[nH]c3ccccc23)NC(=O)C(N)Cc2c[nH]c3ccccc23)c1)C(N)=O (stereo not given) (H-WW[3Abz]R-NH2; configuration not given here) , what MIC was observed with Bacillus subtilis?
Result: 150
